- subject of test: T1, HcoV-OC43 S protein (HcoV-OC43, UniProt P36334 14-1297)
- T1 sequence: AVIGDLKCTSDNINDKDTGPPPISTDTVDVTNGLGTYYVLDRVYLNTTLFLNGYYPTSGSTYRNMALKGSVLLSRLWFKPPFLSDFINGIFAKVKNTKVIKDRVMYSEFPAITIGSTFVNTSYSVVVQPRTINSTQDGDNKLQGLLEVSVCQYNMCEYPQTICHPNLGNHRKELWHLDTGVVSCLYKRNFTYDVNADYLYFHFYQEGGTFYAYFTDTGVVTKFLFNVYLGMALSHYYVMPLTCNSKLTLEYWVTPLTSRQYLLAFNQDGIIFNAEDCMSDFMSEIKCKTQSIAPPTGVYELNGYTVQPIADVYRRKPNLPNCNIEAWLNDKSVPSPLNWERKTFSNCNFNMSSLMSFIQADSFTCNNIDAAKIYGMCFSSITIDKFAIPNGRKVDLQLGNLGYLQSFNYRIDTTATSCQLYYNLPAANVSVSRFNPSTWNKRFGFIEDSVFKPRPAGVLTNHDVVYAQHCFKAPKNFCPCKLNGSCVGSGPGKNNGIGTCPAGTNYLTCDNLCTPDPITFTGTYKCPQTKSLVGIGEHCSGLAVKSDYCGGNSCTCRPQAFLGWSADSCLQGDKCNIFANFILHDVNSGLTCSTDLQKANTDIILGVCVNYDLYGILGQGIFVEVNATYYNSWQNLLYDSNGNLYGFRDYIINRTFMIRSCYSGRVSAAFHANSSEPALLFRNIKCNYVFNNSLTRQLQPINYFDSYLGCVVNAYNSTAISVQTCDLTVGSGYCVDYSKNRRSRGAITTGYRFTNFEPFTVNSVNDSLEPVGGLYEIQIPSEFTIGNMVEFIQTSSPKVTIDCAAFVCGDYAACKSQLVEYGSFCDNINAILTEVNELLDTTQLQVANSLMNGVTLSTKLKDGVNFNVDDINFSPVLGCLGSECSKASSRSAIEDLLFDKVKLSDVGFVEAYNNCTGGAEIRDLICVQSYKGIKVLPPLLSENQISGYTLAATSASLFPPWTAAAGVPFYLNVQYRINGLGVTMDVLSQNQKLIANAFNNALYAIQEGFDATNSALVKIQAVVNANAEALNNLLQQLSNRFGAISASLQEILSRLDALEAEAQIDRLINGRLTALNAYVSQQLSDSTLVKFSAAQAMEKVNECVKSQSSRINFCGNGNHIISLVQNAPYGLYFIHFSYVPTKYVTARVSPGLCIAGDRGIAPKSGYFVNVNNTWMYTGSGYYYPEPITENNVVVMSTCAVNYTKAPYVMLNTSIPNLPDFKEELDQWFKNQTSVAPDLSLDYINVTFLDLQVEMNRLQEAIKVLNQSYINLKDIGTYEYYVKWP
- method summary: direct ELISA, OD450

binder | binding result
rabbit monoclonal antibody 9H1 against the SARS-CoV-2 S1 (antibody, V domains shown) VH: QSVEESGGRLVTPGTPLTLTCTVSGFSLSRYAMSWVRQAPGKGLEWIGIIVDSGHTAYASWAKGRFTISRTSTTVDLKMTSLTTEDTATYFCARETGGGAFYVFEFWGPGTVVTVSS VL: AQVLTQTPSSVSAAVGGTVTINCQASEDIYDNLVWYQQKPGQPPKLLIYDASTLAFGVSSRFRGSGSGTHFTLTMRDVQCDDAATYYCQGEFSCSSGDCTAFGGGTEVVVKG | no binding
rabbit monoclonal antibody 9A5 against the SARS-CoV-2 S1 (antibody, V domains shown) VH: QSVEESGGRLVTPGTPLTLTCTVSGFSLSAYQMIWVRQTPGKGLEYIGIMHTGTSAYYANWAKGRFTISKTSSTTVDLKMTSPTTEDTATYFCGRNLNEGFTGAYPFNLWGPGTLVAVSS VL: DVVMTQTPASVEAAVGGTVTIKCQASQSIGSNLAWYQKKPGQPPKLLIYQASNLASGVPSRFKGSGSGTQFTLTISDLECADAATYYCQMNYYISSSYTYTFGGGTEVVVKG | no binding
